Overview of recorded cytotoxicity at 70.5 h for various compounds
experiment: Human HepG2 cell viability assay in 384 well format
Assay type: toxicity, cell-based
Parameters: dose 125 nL, time 70.5 hour; concentration not given beside the values
condition-parameters: HepG2 cells, read-out: Inhibition
metric: cytotoxicity at 70.5 h (%)

1) COc1ncccc1C(=O)N1CCCC(n2ccnc2)C1 (stereo unspecified)    -1.13
2) CC(=O)Nc1nc(SCc2ccc3c(c2)OCO3)ns1    -6.56
3) CN1CCC(N(CCc2ccccc2)Cc2noc(C3CC3)n2)CC1    -12.8
4) Cc1cc(C(=O)N(Cc2c(C)nn(C)c2C)C(C)C)nc(C)n1    17
5) Cc1nc(Nc2ccc(Cl)cn2)sc1C(=O)NC(C)C    7.41
6) O=C(C1CCOC1)N1CCC2(CC1)CN(Cc1nccs1)CCO2 (stereo unspecified)    -2.99

The reported measurements were obtained from ChEMBL document CHEMBL3507680.
